System: SNB-75
Assay: NCI tumour cell line growth inhibition, 48 h
Active and inactive are the calls of the source. No stated cut-off is given here; in the data, active = GI50 up to about 1.1 µM and inactive = higher.
GI50 for assorted compounds

Use these answered entries as a reference point.
CC#CC(O)(C(=O)OCCCN(C)C)C1CCCCC1 (stereo unspecified) :: > 100 µM (inactive)
COc1ccc2[nH]c(C(=O)N3CC(CCl)c4ccc([N+](=O)[O-])cc43)cc2c1 (stereo unspecified) :: > 37.7 µM (inactive)
N#Cc1cc(C#N)c(Cl)nc1N :: > 10 µM (inactive)

Field request: GI50 | item: `CC(C)(C)CC(C)(C)N/C(N)=N/O`
> 86.5 µM (inactive)

Cool, now `COc1ccc(/C=C(\Cl)c2ccc(OC)c(OC)c2)cc1OC`
> 100 µM (inactive)

Same lookup for CC(C)C(Sc1nc(-c2ccccc2)c(-c2ccccc2)[nH]1)C(=O)NNC(=S)Nc1ccccc1 (stereo unspecified) , please.
19.5 µM (inactive)
